Source listed as PubChem BioAssay (NCI).

# Test system: UACC-62 melanoma
# EXPERIMENT_SUMMARY: NCI tumour cell line growth inhibition, 48 h; in the data active = GI50 below about 0.43 µM; inactive = the rest
Classes used: active, inactive

COMPOUND	ASSIGNED_LABEL
CC(C)[P+](c1ccccc1)(c1ccccc1)c1ccccc1	inactive
COc1ccc(Nc2ncnc3ccc(-c4cncc(NS(C)(=O)=O)c4)cc23)cc1Cl	inactive
N#CC1=C(N)NC(N2CCOCC2)=NC12Nc1ccccc1O2 (stereo unspecified)	inactive
CC/C=C/c1cc2c(cc1O)CCC1C2CC[C@@]2(C)C1CC[C@@H]2O (stereo partly specified)	inactive
C=CC1C(CC2OC(CO)C(O)C(O)C2O)OC=C2C(=O)OCCC21O (stereo unspecified)	inactive
CN1CCN(C(=O)c2ccc(NC(=O)Nc3ccc(-c4nc(N5CCOCC5)c5cccn5n4)cc3)cc2)CC1	active
COC1=C(OC)C(=O)C(C/C=C(\C)CC/C=C(\C)CC/C=C(\C)CC/C=C(\C)CC/C=C(\C)CC/C=C(\C)CC/C=C(\C)CC/C=C(\C)CC/C=C(\C)CCC=C(C)C)=C(C)C1=O	inactive
COc1cc2nc(N3CCC[C@H](NC4=CC(=O)c5ccccc5C4=O)C3)nc(N)c2cc1OC	inactive
CN1CCN(Cc2ccc(NC(=O)c3[nH]ncc3Nc3ncnc4[nH]ccc34)cc2)CC1	active
CC1CCCC(C#N)(NOC2=NCCN2)C1 (stereo unspecified)	inactive
CC12CCC(=O)C(O1)C1C(=O)c3ccc4c(ccc5ccccc54)c3C(=O)C12 (stereo unspecified)	inactive

====

# Tested on: OVCAR-4 ovarian
# EXPERIMENT_SUMMARY: NCI tumour cell line growth inhibition, 48 h
Parameter GI50: see the listing below.
PROPERTY_LABEL: GI50

COMPOUND	PROPERTY_LABEL	MEASUREMENT
CC1CCCC(C#N)(NOC2=NCCN2)C1 (centres undefined)	GI50	48.3 µM
O=C1NC(=O)C(=Cc2cn(Cc3ccccc3)c3ccccc23)C(=O)N1	GI50	4.84 µM
CCOC(=O)c1c(-c2ccccc2)[n+](=O)c2cc(F)c(F)cc2n1[O-]	GI50	0.624 µM
C=CC1C(CC2OC(CO)C(O)C(O)C2O)OC=C2C(=O)OCCC21O (centres undefined)	GI50	5.82 µM
COc1cc2nc(N3CCC[C@H](NC4=CC(=O)c5ccccc5C4=O)C3)nc(N)c2cc1OC	GI50	1.61 µM
Cc1c(Nc2nccc3cc(CN4CC[C@@H](O)C4)cnc23)cccc1-c1cccc(-c2nc3cc(CN4CC[C@@H](C(=O)O)C4)cc(C#N)c3o2)c1C	GI50	14.3 µM
CC(C)(C)c1ccc(C2CC(=O)C3=C(C2)Nc2ccccc2N(C(=O)c2ccccc2Cl)C3c2ccc(F)cc2)cc1 (centres undefined)	GI50	> 100 µM
COc1cc(F)c(F)cc1C(=O)c1cnc(NC2CCN(S(C)(=O)=O)CC2)nc1N	GI50	6.4 µM
CN1CCN(CCCOc2ccc3nc(Nc4ccc(F)c(F)c4)ccc3c2)CC1	GI50	2.84 µM

====

# System: T-47D breast
# EXPERIMENT_SUMMARY: NCI tumour cell line growth inhibition, 48 h
PROPERTY_LABEL: log10(TGI) (log10 of the value in µM)

MOLECULE	log10(TGI)
CC12OC(C(=O)C13CC3)C1C(=O)c3c(O)ccc(O)c3C(=O)C12 (configuration not stated)	1.51
CN1CCN(Cc2ccc(NC(=O)c3[nH]ncc3Nc3ncnc4[nH]ccc34)cc2)CC1	1.27
CCN(CC)CCCNCc1cc(-c2ccccc2)nc2cc(Cl)ccc12	0.67
C=C(C)[C@@H]1CCc2c(O)c(O)c(=O)cc(C)c2C1	1.37
CC(C)=Cc1cc(C)c2ccc(C)c3c2c1C(C)=C(O)C3=O	1.72
O=c1[nH]cc(N=Cc2cc(Cl)ccc2O)c(=O)[nH]1	1.78
COC(=O)CC1(O)C=CC(=O)C=C1	1.41
COC(=O)CCC(=O)NC1=C(Nc2ccccc2)C(=O)c2ccccc2C1=O	1.52
Cc1cn(C2CC(COCc3ccccc3)N(CCO[Si](C)(C)C(C)(C)C)O2)c(=O)[nH]c1=O (configuration not stated)	1.49
COc1cc(F)c(F)cc1C(=O)c1cnc(NC2CCN(S(C)(=O)=O)CC2)nc1N	1.38
O=C(O)COc1ccc(OCC(=O)O)cc1	0.97
COc1ccc(CSC2=C(C#N)C(=O)NC3(CCCCC3)S2)cc1	1.80
CC(C)C[C@H](NC(=O)Cn1cccc(CNC(=O)c2ccccc2)c1=O)B(O)O	0.45
CCN1CCN(c2cc(C(=O)Nc3cccc(Nc4ccc5c(OC)cccc5n4)c3)cc(C(F)(F)F)c2)CC1	1.07
COc1c(OC)c(OC)c2c(=O)cc(-c3ccc(OC(C)C)cc3)oc2c1OC	1.63
O=C1C=CC(=O)c2c1ccc1c3ccccc3n(Cc3ccccc3)c21	1.81
CC1=C(CO)C(=O)O[C@@H]([C@@H](C)[C@H]2CC[C@H]3[C@@H]4C[C@H]5O[C@]56[C@@H](O)C=CC(=O)[C@]6(C)[C@H]4CC[C@]23C)C1	0.40
